Experimental system: Dopamine receptors; D2 & D4 (Homo sapiens) (UniProt P14416+P21917)
Measurement description: Selectivity of D2 receptor over D4 receptor
Assay type: protein assay
Observation type: Selectivity

- Structure string: "CC(C)(C)C(=O)NCCCCN1CCN(c2cccc(Cl)c2)CC1"
  Selectivity: 3
- Structure string: "CCC(C)(C)C(=O)NCCN1CCN(c2ccc(Cl)cc2)CC1"
  Selectivity: 320
- Structure string: "CC1(C(=O)NCCN2CCN(c3ccc(Cl)cc3)CC2)CCCCC1"
  Selectivity: 100
- Structure string: "O=C(NCCCCN1CCN(c2ccc(Cl)cc2)CC1)c1ccccc1"
  Selectivity: 3
- Structure string: "CC(C)(C)C(=O)NCCCCN1CCN(c2ccc(F)cc2)CC1"
  Selectivity: 15

a = CCC(C)(C)C(=O)NCCCCN1CCN(c2ccc(Cl)cc2)CC1
b = CCCC(C)(C)C(=O)NCCN1CCN(c2ccc(Cl)cc2)CC1
Q: Please compare: a and b . Report which one has the smaller Selectivity value. Reply briefly: the label of your chosen item.
A: a
